# Tested Target: rat σ2R (Rattus norvegicus, UniProt Q5U3Y7)
# Construct: The thawed membrane preparation of rat liver (about 100 µg of protein) was incubated; from tissue; host or cells: rat liver membranes
# Sequence (Q5U3Y7 whole entry): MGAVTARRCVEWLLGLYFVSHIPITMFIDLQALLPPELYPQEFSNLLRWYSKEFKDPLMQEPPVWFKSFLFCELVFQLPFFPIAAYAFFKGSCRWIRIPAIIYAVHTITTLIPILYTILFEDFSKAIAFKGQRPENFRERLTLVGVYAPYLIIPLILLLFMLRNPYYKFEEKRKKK
# Measurement Description: σ2R competitive radioligand binding assay (rat liver membranes)
pKi: −log10 of the molar value.
Listing: pKi of selected molecules
Recorded Metric: pKi

molecule="C#CCNc1nc(NC2CCN(Cc3ccccc3)CC2)c(C#N)c(-c2ccccc2)c1C#N [Compound 8]" recorded_metric=pKi result_number=6.85
molecule="C#CCNc1nc(NC2CCN(Cc3ccccc3)CC2)c(C#N)cc1C#N [Compound 1]" recorded_metric=pKi result_number=6.76
molecule="C#CCN(C)c1nc(NCCCC2CCN(Cc3ccccc3)CC2)c(C#N)c(-c2ccccc2)c1C#N [Compound 12]" recorded_metric=pKi result_number=6.41
molecule="C#CCN(C)c1nc(NCCC2CCN(Cc3ccccc3)CC2)c(C#N)cc1C#N [Compound 5]" recorded_metric=pKi result_number=6.41
molecule="C#CCNc1nc(NCCCC2CCN(Cc3ccccc3)CC2)c(C#N)c(-c2ccccc2)c1C#N [Compound 9]" recorded_metric=pKi result_number=6.98
molecule="C#CCNc1nc(NCCCC2CCN(Cc3ccccc3)CC2)c(C#N)cc1C#N [Compound 3]" recorded_metric=pKi result_number=7.43
molecule="C#CCN(C)c1nc(NCC2CCN(Cc3ccccc3)CC2)c(C#N)c(-c2ccccc2)c1C#N [Compound 11]" recorded_metric=pKi result_number=7.26
molecule="C#CCNc1nc(NCCC2CCN(Cc3ccccc3)CC2)c(C#N)cc1C#N [Compound 2]" recorded_metric=pKi result_number=7.38
molecule="C#CCN(C)c1nc(NCCCC2CCN(Cc3ccccc3)CC2)c(C#N)cc1C#N [Compound 6]" recorded_metric=pKi result_number=6.89

---

# Ki listing for each entry below
# Tested Target: rat σ2R (Rattus norvegicus, UniProt Q5U3Y7)
# Construct: The thawed membrane preparation of rat liver (about 100 µg of protein) was incubated; from tissue; host or cells: rat liver membranes
# Measurement Description: σ2R competitive radioligand binding assay (rat liver membranes)
# Experimental Conditions: rat liver membrane preparations; radioligand [3H]ditolylguanidine; (+)-pentazocine to mask σ1R; mean ± SEM; read-out: Ki Rat σ2R
Recorded Metric: Ki (nM)

smiles_notation=C#CCNc1nc(NCCCCC2CCN(Cc3ccccc3)CC2)c(C#N)c(-c2ccccc2)c1C#N recorded_metric=Ki result_number=39
smiles_notation=C#CCNc1nc(NCCCCC2CCN(Cc3ccccc3)CC2)c(C#N)cc1C#N recorded_metric=Ki result_number=163
smiles_notation=C#CCN(C)c1nc(NCCCCC2CCN(Cc3ccccc3)CC2)c(C#N)cc1C#N recorded_metric=Ki result_number=288

---

# Tested Target: human σ1R (Homo sapiens, UniProt Q99720)
# Construct: expressed in transfected cells; host or cells: HEK293 (provided by Olivier Soriani, Université de Nice Sophia-Antipolis)
# Sequence (Q99720 whole entry): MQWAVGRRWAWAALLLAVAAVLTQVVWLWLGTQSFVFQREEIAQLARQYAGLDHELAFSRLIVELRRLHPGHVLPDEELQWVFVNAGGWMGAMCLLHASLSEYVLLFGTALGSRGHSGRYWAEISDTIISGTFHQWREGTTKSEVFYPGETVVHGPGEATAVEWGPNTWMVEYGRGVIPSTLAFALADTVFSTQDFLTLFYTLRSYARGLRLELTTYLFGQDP
# Measurement Description: hσ1R competitive radioligand binding assay
# Experimental Conditions: membrane preparations of HEK-293 cells stably transfected with hσ1R; radioligand (+)-[3H]pentazocine; two experiments: mean (individual values); three or more: mean ± SD; read-out: Ki Human σ1R
pKi: −log10 of the molar value.
Recorded Metric: pKi

smiles_notation=C#CCNc1nc(NCCCCC2CCN(Cc3ccccc3)CC2)c(C#N)c(-c2ccccc2)c1C#N recorded_metric=pKi result_number=7.81
smiles_notation=C#CCNc1nc(NCCCCC2CCN(Cc3ccccc3)CC2)c(C#N)cc1C#N recorded_metric=pKi result_number=8.40
